GI50: recorded values
tested on: CAKI-1; assay: NCI tumour cell line growth inhibition, 48 h
Activity calls are given as the source filed them. Cut-off read from the data, not from the text of the source: active = GI50 up to about 1.1 µM and inactive = higher.

| compound | GI50 |
| --- | --- |
| Cc1cc2c(c(C#N)c1C)NC(=O)CCC2=O | > 100 µM (inactive) |

Exam item: I'd like to know its GI50. The compound in question is COc1nc(-c2cn(S(=O)(=O)c3ccc(C)cc3)c3ccc(Br)cc23)cc(C(F)(F)F)c1C#N
Marked response: 45.2 µM (inactive)

Exam item: Now the same for C[C@]12C=CC(=O)C=C1CC[C@@H]1[C@@H]2CC[C@]2(C)OC(=O)CC[C@@H]12 [TESTOLACTONE]
Marked response: 372 µM (inactive)

Exam item: Now the same for COc1ccc(C2c3cc4c(cc3C(O)C3CCC(=O)N23)OCO4)cc1 (stereo unspecified)
Marked response: > 100 µM (inactive)

Exam item: Now the same for CC(C)(Br)C(Br)CCC(C)(Br)C(Br)CO (stereo unspecified)
Marked response: > 10 µM (inactive)

Exam item: Now the same for CCCCCCc1ccc(C(=O)NO)cc1
Marked response: 28.1 µM (inactive)

Exam item: Now the same for O=C1C2C3C=CC(C2C(=O)N1COP(=O)(O)O)C1C2C(=O)N(COP(=O)(O)O)C(=O)C2C31 (stereo unspecified)
Marked response: > 100 µM (inactive)

Exam item: Now the same for O=C(CC(=O)N1N=C(N2c3ccccc3Sc3ccccc32)CC1c1ccccc1)Nc1ccccc1Cl (stereo unspecified)
Marked response: > 100 µM (inactive)

Exam item: Now the same for CCOC(=O)C(Cc1cn(S(=O)(=O)c2ccccc2)c2ccccc12)(NC(C)=O)C(=O)OCC
Marked response: 49.1 µM (inactive)

Exam item: Now the same for O=C(NC1CCCCC1)N1CCNC1=S
Marked response: > 100 µM (inactive)

Exam item: Now the same for CC(=O)NC(CCCNCc1ccccc1)C(=O)NCc1ccccc1 (stereo unspecified)
Marked response: > 100 µM (inactive)

Exam item: Now the same for Cc1cc(NS(=O)(=O)c2ccc(NC(=O)c3ccc4nc5ccccc5c(Nc5ccc(S(=O)(=O)N=C(N)N)cc5)c4c3)cc2)no1
Marked response: 18.9 µM (inactive)

Exam item: Now the same for C/C(Cl)=N/OC(=O)Nc1ccc(S(N)(=O)=O)c(C)c1
Marked response: 1.83 µM (inactive)

Exam item: Now the same for CSc1nc(=O)c(C#N)c(-c2ccccc2)n1C1OC(COC(C)=O)C(OC(C)=O)C(OC(C)=O)C1OC(C)=O (stereo unspecified)
Marked response: > 100 µM (inactive)

Exam item: Now the same for O=C(c1ccccc1)[C@H]1Nc2ccc(Cl)cc2C2c3ccccc3CC21 (stereo partly specified)
Marked response: > 100 µM (inactive)

Exam item: Now the same for O=C(COc1ccccc1Cl)N1N=C(c2ccc(Cl)cc2)CC1(O)c1ccccc1 (stereo unspecified)
Marked response: > 100 µM (inactive)

Exam item: Now the same for COc1cc(/C=C2/SC(c3ccccc3)N(Cc3ccccc3)C2=O)cc(OC)c1OC (stereo unspecified)
Marked response: > 100 µM (inactive)

Exam item: Now the same for O=C(Nc1ccc(Cl)c(Cl)c1)OCCN1c2ccccc2Sc2ccccc21
Marked response: > 10 µM (inactive)

Exam item: Now the same for CC1=C2C(=CO[C@H](C)[C@H]2C)C(O)=C(C(=O)O)C1=O [CITRININ]
Marked response: 27.3 µM (inactive)
